Kindly supply the reported flash point values for the records listed here.
Answers are plain numbers, in °C.

Here's what some known entries look like.
> print(dat)
                                   molecule  recorded.value
1                            CCCCCCCCCCCCCl          113.00
2  Cc1ccc(OP(=O)(Oc2ccc(C)cc2)Oc2ccc(C)cc2)cc1 [tris(4-methylphenyl) phosphate]          210.00
3      CCOCCOC(C)=O [2-ethoxyethyl acetate]           57.00

Here's the next entry for you.
[in] Fill blank: measured flash point of the molecule CCCCOCCOCCOC(C)=O [2-(2-butoxyethoxy)ethyl acetate] is ____.
[out] 116.00
